system: DU-145 prostate; assay: NCI tumour cell line growth inhibition, 48 h
PROPERTY MEASURED: TGI (µM)
Expressed in µM, but write only the number.

Previously resolved entries follow.
| COMPOUND | OBSERVED RESULT |
| --- | --- |
| CCOC(=O)c1c(NN2CCN(CC(F)(F)F)CC2)oc(/C=C2\C=Nc3ncccc32)c1O | 23.7 |
| Cc1cc(-c2nc3sc(C)cn3c2/C=N/N=C(N)N)c(C)s1 | 23 |
| NC(=O)c1cn(C2CC(O)C(CO)O2)c2ncnc(N)c12 (stereo not drawn) | 10.4 |

Qu. // returns reported TGI for input `CC(C)C1=Cc2ccc3c(c2C(=O)C1=O)CCCC3`
Ans. 32

----------
tested on: NCI-H23 lung; experiment: NCI tumour cell line growth inhibition, 48 h
Parameter: TGI. Scope: all listed entries.
Expressed in µM, but write only the number.

Qu. Observed TGI on NCI-H23 lung for COc1cc([C@@H]2c3cc4c(cc3[C@@H](NCc3ccccc3F)C3COC(=O)[C@@H]32)OCO4)cc(OC)c1O (stereo not given in full) , please.
Ans. 7.5

Qu. Here is the next compound: `CCOC(=O)c1ccc(N2NC(=O)/C(=C/c3ccc([N+](=O)[O-])o3)C2=O)cc1`
Ans. 52.6

Qu. Here is the next compound: COc1cccc(/C=C2\CCC(CN(C)C)C2=O)c1 (stereo not given)
Ans. 27.3

----------
system: CAKI-1 renal; experiment: NCI tumour cell line growth inhibition, 48 h; in the data active means GI50 below about 0.43 µM; inactive means the rest
Select the matching outcome among active, inactive

| COMPOUND | TARGET OR TEST SYSTEM | ASSIGNED CATEGORY |
| --- | --- | --- |
| CCCCCCCCCCCCCCCCn1cc[n+](C)c1 | CAKI-1 renal | active |
| CCN1/C(=C/C(C)=C/c2sc3ccc4ccccc4c3[n+]2CC)Sc2ccc3ccccc3c21 | CAKI-1 renal | active |
| Oc1ccc(N=Nc2ccc(Br)cc2)c(O)c1 | CAKI-1 renal | inactive |
| Cc1[nH]c(C(=O)Nc2ccc(C(=O)NCCN)cc2OC(C)C)c(Cl)c1Cl | CAKI-1 renal | inactive |

Qu. What was the test verdict on `COc1ccc(-c2cnc(-c3ccc(OC)cc3)n2-c2cc(OC)c(OC)c(OC)c2)cc1` ?
Ans. inactive

Qu. Here is the next compound: `O=C(Nc1ccc(I)cc1F)c1cc(Br)ccc1O`
Ans. active

Qu. Here is the next compound: NC(=O)c1cn(C2CC(O)C(CO)O2)c2ncnc(N)c12 (stereo not given)
Ans. inactive

Qu. Here is the next compound: `ClCc1ccccc1Cn1cnc2nc(Cl)nc(Cl)c21`
Ans. inactive

Qu. Here is the next compound: CC(C)[C@@]12C[C@@H](OC(=O)C3CO3)[C@@](C)(O1)[C@@H]1CC[C@@H](C)[C@H]1[C@@H]2OC(=O)/C=C/c1ccccc1 (stereo not given in full)
Ans. inactive

Qu. Here is the next compound: `CCOC(=O)c1ccc(N2NC(=O)/C(=C/c3ccc([N+](=O)[O-])o3)C2=O)cc1`
Ans. inactive

----------
Parameter: TGI. Scope: all listed entries.
tested on: IGROV1 ovarian; assay: NCI tumour cell line growth inhibition, 48 h
Expressed in µM, but write only the number.

Previously resolved entries follow.
| COMPOUND | TARGET OR TEST SYSTEM | TGI / µM |
| --- | --- | --- |
| O=C1N[C@H]2C(=O)c3c(Br)sc(Br)c3[C@H]2O1 | IGROV1 ovarian | 25.3 |
| CCOc1ccc(-c2nc3ccc(-c4nc5ccc(N6CCN(C)CC6)cc5[nH]4)cc3[nH]2)cc1 | IGROV1 ovarian | 2.44 |
| O=S(=O)(CC(Cl)c1ccccc1)c1nc2ccccc2s1 (stereo unspecified) | IGROV1 ovarian | 24.2 |
| c1ccc(/C(=N\Nc2nc3ccccc3[nH]2)c2ccccn2)cc1 | IGROV1 ovarian | 1.31 |
| Cc1cccc2c(=O)c3c(sc12)c(NCCCNCCO)nc1ccccc13 | IGROV1 ovarian | 2.96 |
| CC(C)(C)c1cc(C[P+](c2ccccc2)(c2ccccc2)c2ccccc2)cc(C(C)(C)C)c1O | IGROV1 ovarian | 7.46 |
| c1cc[c]([Ge]([O]c2cccc3cccnc23)([c]2ccccc2)[c]2ccccc2)cc1 | IGROV1 ovarian | 10.3 |
| O=C1OC(c2ccc(O)cc2)(c2ccc(O)cc2)c2ccc(Cl)c3cccc1c23 (tested in a mixture with another compound) | IGROV1 ovarian | 33.2 |

Qu. // returns reported TGI for input COC(=O)/C=C1\CCC2[C@@H](C(=O)CC3[C@]2(C)CCC[C@@]3(C)C(=O)OC)C1C (stereo partly specified)
Ans. 57

Qu. Here is the next compound: `COC(=O)CCc1n(Cc2ccc3ccccc3c2)c2ccccc2[n+]1Cc1ccc2ccccc2c1`
Ans. 1.9

Qu. Here is the next compound: NC(=O)N/N=C(\CC1OC(=O)c2ccccc21)c1ccc([N+](=O)[O-])cc1 (stereo unspecified)
Ans. 49.8
